METHOD: yeast display, Sf9 membrane polyspecificity reagent, FACS + sequencing; frameworks hold sequencing errors
METRIC NAME: polyreactivity (PSR sort gate)

- QVQLVESGGGLVQAGRSLRLTCAASGSTFSIYVMGWYRQAPGKERELVAAITWSDGIKYYADSVKGRFTISRDNAKNTVYLQMNSLKRDDTAVYYCRDSHPSYRPGTVRYDYLGQGTQVTVSS: low polyreactivity
- QVQFEESGGGLVQAGGSLRLSCAASGSTFQGYAMGWSRQAPGKERELVAAISSGGSTNYADSVKGRFTISRDNAKNTVYLQMNSLKPEDTAVYYCNVDLTTVGHWYYYRPGYDYWGQGTQVTVSS: low polyreactivity
- QVQLVESGGGLVQAGGSLRLSCADSGRIYGIYAMGWYRQAPGKERELVAAITNIGGRTYYADSVKGRFTISRDNAKNTVYLQMNSLKPEDTAVYYCAKRWRRRFVDVWSLYDYWGQGTQVTVSS: low polyreactivity
- QVQLVESGGGLVQAGGSLSLICAASGFIYYTMGWYRQAPGKEWELVAAISRSGGSTYYADSVKGRFTISRDNAKNTVYLQMNSLKPEDTAVYYCAARRPYRDGYDYWGQGTQVTVSS: high polyreactivity

Dear reader, for each entry below, please note its polyreactivity (PSR sort gate).
1. QVQLVESGGGLVQAGGSLRLSCAASGFIFAKYAMGWYRQAPGKERELVAAITSGGSTNYADSVKGRFTISRDNAKNTVYLQMNSLKPEYTAVYYCNRGFDWWYRYRHYDYWGQGTQVTVSS
2. QVHLVESGGGLVQAGGSLRLSCAASGSTFVRNVMGWYRQAPGKERELVAAITRSGDTTYYADSVKGRFTISRDNAKNTVYLQMNSLKPEDTAVYHCAKRTFVRRGSIYPIDDYWGQGTQVTVSS
3. QVQLVESGGGLVQAGGSLRLSCDASGRIFGLYDMGWYRQAPGKERELVAAISRGGGSTYYADSVKGRFTISRDNAKNTVYLQMNSLKPEDTAVYYCATGLGYFSRLDYWGQGTQVTVSS
4. QVQLVESGGGLVQAGGSLRLSCAASGSIIYTYAMGWYRQAPGKVRELVAAITGSDNTNYADSVKGRFTISRDNAKNTVYLQMNSLNPEDTAVYYCAADFPWSTKSWHPDSGDSWGQGTQVTVSS

Solution:
1: low polyreactivity; 2: low polyreactivity; 3: low polyreactivity; 4: low polyreactivity

---

METHOD: yeast display, Sf9 membrane polyspecificity reagent, FACS + sequencing; frameworks hold sequencing errors
METRIC NAME: polyreactivity (PSR sort gate)

* QDQLVESGGGLVQAGGSLRLSCAASGITFYRNAMGWYRQAPGKERELVAAITSGTRTNYADSVKGRFTISRDNAKNTVYLQMNSLKPEDTAVYYCAKGGRSSSPLYRFEYWGQGTQVTVSS | high polyreactivity
* QVQLVESGGGLVQAGGSLRLSCAASGLIFDSYVMGWYRQAPGKERELVAVISGSGGSTYYADSVKGRFTISRDNAKNTVYLQMNSLKPEDTAVYYCAAQYSAGQYYGYGYWGQGTQVTVSS | high polyreactivity
* QVQLVESGGGLVQAGGSLRLSCAASGLTFKVYAMGWYRQAPGKERELVAAISWSGGSTYYADSVKGRFTISRDNAKNTVYLQMNSLKPEDTAVYYCAVEPSYYVVFFPYEYWGQGTQVTVSS | low polyreactivity
* QVQLVESGGGLVQAGGSLRLSCAASGFTLYSYAMGWYRQAPGKERELVAAIRRRGASTYYADSVKGRFTISRDNAKNTVYLQMNSLKPEDTAVYYCAADAKYPDDDYWGQGTQVTVSS | high polyreactivity

Dear reader, for each entry below, please note its polyreactivity (PSR sort gate).
1. QVQLVESGGGLVQAGGSLRLSCAASGSIFSPNDMGWYRQAPGKERELVAAITSAGSTYYADSVKGRFTISRDNAKNTVYLQMNSLKPEDTAVYYCAATYISVTDYAYFPLWYGYWGQGTQVTVSS
2. QVQLVESGGGLVQAGGSLRLSCAASGFTFVPYAMGWYRQAPGKERETNADSVKGRFTISRDNAKNTVYLQMNSLKPEDTAVYYCAAGGYGPYDYWGQGTQVTVSS
3. KVQLVESGGVLVQEGGRLRLSCAASGRTFQLNAMGWYRQAPGKEMELVAAISTRGGSTYYADSVKGRFTISRDNAKNSVYLQMNSLKPEDTAGYYCAKDPSFTRGYKEGGGYDYWGQGTQVTVSS
4. QVQLVESGGGLVQAGGSLRLSCAASGRIFYPYAMGWYRPAPGKERELVAAITVRGGRTYYADSVKWRFTISRDNAKNTVYLQMNSLKPEDTAVYYCNAVIGWYIGSRTYPHGPLQYDYWGQGTQVTLSS
5. QVQLVESGGGLVQAGGSLRLTCAASGSIFYPYSMGRYRPAPGKERELVAAISSSGGSTYYADSVKGRFTISRDNAKNTVYLQMNSLKPEDTADYNCAARGKKHAYDYWGQGTQVTVSS
6. QVQLVESGGGLVQAGGSLRLSCAASGSTFGPYTMGWYRQAPGKERELVAAISYSGASTYYADSVKGRFTISRDNAKNTVYLQMNSLKPEDTAVYYCNTVYRYTRARYPYDYWGQGTQVTVSS

Solution:
low polyreactivity
low polyreactivity
high polyreactivity
high polyreactivity
low polyreactivity
high polyreactivity

Reported polyreactivity (PSR sort gate) for QVQLVESGGGLVQAGGRLRLTCAASASIFHYNSMGWYRQATGKQRELVAAITSGGSTYADSVKGRFTISRDNAKNTVYLQMNSLKPEDTAVYYCNADSVGPRGDLGYWGQGTQVTVSS was low polyreactivity

---

METHOD: yeast display, Sf9 membrane polyspecificity reagent, FACS + sequencing; frameworks hold sequencing errors
METRIC NAME: polyreactivity (PSR sort gate)

Study these solved cases before continuing.
* QVHLEESGGGLVQAGGSLRLTCAASGFTFQLYAMGWYRQPPGKERELVAAINYRGSSTYYADSVKGRFTISRDNAKNTVYLQMNSLKPEDTAVYYCNAAQYYERFNHWGQGTQVTVSS | high polyreactivity
* QVQLVESGGGLVQAGGSLRLSCAASGSTFRTNTMGWYRQAPGKERELVADISWSGGSTYYADSVKGRFTISRDNAKNTVYLQMNSLKPEDTAVYYCAKDGAYWTYFSWYDYWGQGTQVTVSS | low polyreactivity
* QVQLVESGGGLVQAGGSLRLSCAASGIIFRTYAMGWYRQAPGKERELVAAISGTTGSKYYADSVKGRFTISRDNAKNTVYLQMNSLKPEDTAVYYCAADFYWYIRYDYWGQGTQVTVSS | low polyreactivity
* QVQLVESGGGLVQAGGSLRLSCAASGRIFSTYVMGWYRQAPGKERELVAAIRNNGGSTYYADSVKGRFTISRDNAKNTVYLQMNSLKPEDTAVYFCAKKSFFTGRWWYDYWGQGTQVTVSS | high polyreactivity

# evaluate next
Reported polyreactivity (PSR sort gate) for QVQLVESVGGLVQAGGSLRLSCAASGFTFASNAMGWYRQAPGKERELVAAISRSGGSTFYADSVKGRFTISRDNAKNTVYLQMNSLKPEDTAVYYCAADIWRVYSTFYYWGQGTQVTVSS was low polyreactivity

---

METHOD: yeast display, Sf9 membrane polyspecificity reagent, FACS + sequencing; frameworks hold sequencing errors
METRIC NAME: polyreactivity (PSR sort gate)

* QVQLVESGGGLVQAGGSLRLSCAASGSTFYYYTMGCYRQAPGKEREFVAAITRSGGSTYYADSVKGRFTISRDNAKNTVYLQMNSLKPEDTAVYYCAATRQRVKSEYWGQGTQVTVSS | low polyreactivity
* QVQLVESGGGLVQAGGSLRLSCAASGIIFSHNVMGWYRQAPGKERELVAAITYSGGSTYYADSVKGRFTISRDNAKNTVYLLMNSLKPEDTAVYYCNALGVSRRDYDYWGQGTQVTVSS | low polyreactivity
* QVQLVESGGGLVQAGGSLRLSCAASGITLVRYAMGWYRQAPGKERELVAAISSSGGSTYYADSVKGRFTISRDTAKNTVYLQMNSLKPEDTAVYYCNAYVHSRRVEFNYWGQGTQVTVSS | high polyreactivity
* QVQLVESGGGLVQAGGSLRLSCAASGSTFYYYAMGWSRQAPGQERELVAAISWRGSSTYYADAVQGRFTISRDNAKNTVYLQLNSLKPEDTAVSYCAAGYPGRVSGYRYGTRATYYYWGQGTQVTVSS | high polyreactivity

# evaluate next
Reported polyreactivity (PSR sort gate) for QVHLVESGGGLVQAGGSLRLSCAASGSIFAAYTMGWYRRAPGKERELVAAISVSTVSTYYADSVKGRFTISRDNAKNTVYLQMNSLNPEDTAVYYCNADATDSYPEKDEHDSWGQGTQVTVSS was low polyreactivity

---

METHOD: yeast display, Sf9 membrane polyspecificity reagent, FACS + sequencing; frameworks hold sequencing errors
METRIC NAME: polyreactivity (PSR sort gate)

* QVQLVESGGGLVQAGGSLRLSCADSGYTFLDYAMGWYRQAPGKERELVAAINSGGSTYYADSVKGRFTISRDNAKNTVYLQMNSLKPEDTAVYYCAREDYVSYRLLYSLFDYWGQGTQVTVSS | low polyreactivity
* QVQLVESGGGLVQAGGSLRLSCAASGSTFTPYAMGWYRQAPGKERELVAGITGNGGSTRYADSVKGRFTISRDNAKNTVYLQMNSLKTEDTAVYYCAARWTRERYRTSYYSWGQGTQVTVSS | high polyreactivity
* QVQLVESGGGLVQAGGSLRLSCAASGSTFKGNAMGWYRQAPGKERELVAAITFSGGSTYYADSVKGRFTISRDNAKNTVYLQMNSLKPEDTAVYYCAKGEWVYWRPWYEYWGQGTQVTVSS | low polyreactivity
* QVQLVESGGGLVQAGGSLRLSCAASGFIFNFYAMGWYRQAPGKERELVAAISRSGGRTYYADSVKGRFTISRDNAKNTVYLQMNSLKPEDTAVYYCAAVTKSLYGYDYWGQGTQVTVSS | low polyreactivity
* QVQLVESGGGLVQAGGSLRLSCAASGLTFVKNVMGWYRQAPGKERELVAAISRRGGSTYYADSVKGRFTISRDNAKNTVYLQMNSLKPEDTAVYSCNAVLNHLSYIYPAVGYWGQGTQVTVSS | high polyreactivity
* QVHLVESGGGLVQAGGSLRLSCAASGSTIYYNAMGRYRQAHGKERELVPRISRSGGSTYADSVKGRFTISRDNANNTVYLQMNSLKPEDTAVYYCNADPWWRFDYWGQGTQVTVSS | low polyreactivity
* QVQLVESGGGLVQAGGSLRLSCAASGRIFKFYTMGWDRQAPGKERELVASIDSTGGSTYYADSVKGRFTISRDNAKNTVYLQMNSLKPEDTAVYYCAAEWIWSSNWYKKYDYWGQGSQVTVSS | high polyreactivity
* QVQLQESGGGLVQAGGTLRLSCAASGSFSADEDMGWYRQAQGKESEFVAGISVGGNTNYADSVKGRFTISRENAKNTVYLQINSLKPEDTAVYYCAVLQDVYDALDYWAQGTQVTVSS | high polyreactivity

Dear reader, for each entry below, please note its polyreactivity (PSR sort gate).
1. QVQLVESGGGLVQAGGSLRLSCAASGSIFGSYAMGWYRPAPGKERELVAGITYRGSSTYYADSVKGRFTISRDNAKNTVYLQMNSLKPEDTAVYYCAADSVFDEYDYWGQGTQVTVSS
2. QVQLVESGGGLVQAGGSLRLSCAASGSTFSNNAMGWYRQAPGNERELVAAISRSGGSTYYADSVKGRFTISRDNAKNTVYLQMNSLKPEDTAVYYCAVSPRYYRNGGAHLQYDYWGQGTHVTVSS
3. QVQLVESGGGLVQAGGSLRLSCAASGSTFYRYAMGWYRQAPGKEREFVAAISGSGGSTRYADSVKGRFTISRDNAKNSVFLQMNSLKPEDTAVYYCAARSRYGYSTFDYWGHGTQVTVSS
4. QVQLVESGGGLVQAGGSLRLSCAASGSIFWYAMGWYRQAPGKERELVATITSGASTTYADSVKGRFTISRDNPKNTVYLQMNSLKPEDTAVYYCAKGFTYPQTRFGYWGQGTQVTVSS
5. QVQLVESGGGLVQAGGSLRLSCAASGGIFGYYAMGWYRQAPGKERELVAAISISGGRTYYADSVKGRFTISRDNAKNTVYLQMNSLKPEDTAVYYCKAARKVYVRGRGSEMDYWGQGTQVTVSS

Solution:
1: low polyreactivity; 2: high polyreactivity; 3: high polyreactivity; 4: low polyreactivity; 5: low polyreactivity

Dear reader, for each entry below, please note its polyreactivity (PSR sort gate).
1. QVQLVESGGGLVHAGGTIEPYAMGWYRQAPGKERELVAPIRTSGGGTYYADSVKGRFTISRDNAKNTVYLQMYSLKPEDTAVYYCAAKSGPTLQRYYSYIFDYWGQGTQVTVSS
2. QVQLVESGGGLVQAGGRLRLSCAASGLTFTYNAMGWYRQEPGKERELVAAITSGGNTNYADSVKGRFTISRDNAKNTVYLQMNSLKPEDTAVYYCATDRKNGISGRYGYWGQGTQVTVSS
3. QVQLVESGGGLVQAGGSLRVSCAASGSIFCPYTMGWNRQAPGKERELVAAITRSGGSTYYADSVKGRFTISRDNGKNTVYLQMNSLKPEDTAVFYCAARGQAYSGDRMYYWGQGTQVTVSS
4. QVQLVESGGGLVQAGGSLRLSCAASGRTFLYYTMGWYRQAPGKERELVAAITSGTSTNYADSVKGRFTISRDNAKNTVYLQMNSLKPEDTAVYYCNKRAARSLNGYPLYGYYYWGQGTQVTVSS
5. QVQLVESGGGLVQAGGSLRLSCAASGSIFSSYTMGWYRPAPGKERELLAAISSTGSTYYADSVKGRFTISRDNAKNTVYLQMNSLKPEDTAVYYCAARGWYWQQYKGHTRYDYWGQGTQVTVSS
6. QVQLVESGGGLVQAGGSLRLSCAASGRTFRVYTMGWYRPAPGKERELVAVISGRGGSTSYADSVKGRFTISRDNAKNSVYVQINSLKPEDTAVYYCAALYTQSNSASMYYWGQGTQVTVSS

Solution:
1: low polyreactivity; 2: low polyreactivity; 3: high polyreactivity; 4: low polyreactivity; 5: high polyreactivity; 6: high polyreactivity

Dear reader, for each entry below, please note its polyreactivity (PSR sort gate).
1. QVQLVESGGGLVQAGGSLRLSCAASGFIFAYYAMGWYRQEPGKERELVAAISSSGSTNYADSVKGRFTISRDNAKNTVYLQMNSLKPEDTAVYYCAADRVGGTPQAYVPSQFDYWGQGTQVTVSS
2. QVQLVESGGGLVQAGGSLRLSCAASGSIFRIYVMGWYRQAPGKERELVAAINSGGRTKYADSVKGRFTISRDNAKNTVYLLMNSLKPDDTAVYYCAAAFLYRKGVSSLYDSWGQGTQVTVSS

Solution:
low polyreactivity
high polyreactivity

Numbers sourced from the nanobody polyreactivity screen of Harvey et al. (2022).
